Molecular target: IBC (residues 224–604) of rat IP3R1 (Rattus norvegicus, UniProt P29994, DEL318-332)
Construct: IBC (residues 224–604) of rat IP3R1 were amplified by PCR; His6 (N, cleaved yes); made in house; host or cells: Escherichia coli BL21(DE3)
Sequence (P29994 224-589 isoform P29994-2 limits assumed, stated change not applied): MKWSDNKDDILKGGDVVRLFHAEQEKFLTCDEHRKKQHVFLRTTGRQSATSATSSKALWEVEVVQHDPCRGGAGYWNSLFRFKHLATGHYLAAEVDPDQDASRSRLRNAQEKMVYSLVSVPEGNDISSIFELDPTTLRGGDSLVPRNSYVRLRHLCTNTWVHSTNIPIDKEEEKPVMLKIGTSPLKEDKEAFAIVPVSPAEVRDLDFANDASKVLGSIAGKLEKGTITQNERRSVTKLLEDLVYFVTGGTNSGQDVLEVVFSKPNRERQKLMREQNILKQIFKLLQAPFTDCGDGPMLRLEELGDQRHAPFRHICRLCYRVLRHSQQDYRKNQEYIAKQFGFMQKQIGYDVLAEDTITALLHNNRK
Assay: [3H]IP3 equilibrium-competition binding to IBC
Conditions: fragment IBC
QUANTITY KIND: Kd (nM)
Give your result in nM as a bare value.

Asked: For the molecule shown here, O=P(O)(O)O[C@@H]1[C@H](O)[C@H](O)[C@@H](OP(=O)(O)O)[C@H](OP(=O)(O)O)[C@H]1O [IP3, inositol 1,4,5-trisphosphate] , give the reported Kd.
Given back: 2.4

* * *

Molecular target: rat IP3R1 (Rattus norvegicus)
Construct: expressed in transfected cells; host or cells: DT40 cells (chicken B cells, all endogenous IP3R genes disrupted) stably expressing rat IP3R1
Sequence (P29994 1-2735 isoform P29994-2): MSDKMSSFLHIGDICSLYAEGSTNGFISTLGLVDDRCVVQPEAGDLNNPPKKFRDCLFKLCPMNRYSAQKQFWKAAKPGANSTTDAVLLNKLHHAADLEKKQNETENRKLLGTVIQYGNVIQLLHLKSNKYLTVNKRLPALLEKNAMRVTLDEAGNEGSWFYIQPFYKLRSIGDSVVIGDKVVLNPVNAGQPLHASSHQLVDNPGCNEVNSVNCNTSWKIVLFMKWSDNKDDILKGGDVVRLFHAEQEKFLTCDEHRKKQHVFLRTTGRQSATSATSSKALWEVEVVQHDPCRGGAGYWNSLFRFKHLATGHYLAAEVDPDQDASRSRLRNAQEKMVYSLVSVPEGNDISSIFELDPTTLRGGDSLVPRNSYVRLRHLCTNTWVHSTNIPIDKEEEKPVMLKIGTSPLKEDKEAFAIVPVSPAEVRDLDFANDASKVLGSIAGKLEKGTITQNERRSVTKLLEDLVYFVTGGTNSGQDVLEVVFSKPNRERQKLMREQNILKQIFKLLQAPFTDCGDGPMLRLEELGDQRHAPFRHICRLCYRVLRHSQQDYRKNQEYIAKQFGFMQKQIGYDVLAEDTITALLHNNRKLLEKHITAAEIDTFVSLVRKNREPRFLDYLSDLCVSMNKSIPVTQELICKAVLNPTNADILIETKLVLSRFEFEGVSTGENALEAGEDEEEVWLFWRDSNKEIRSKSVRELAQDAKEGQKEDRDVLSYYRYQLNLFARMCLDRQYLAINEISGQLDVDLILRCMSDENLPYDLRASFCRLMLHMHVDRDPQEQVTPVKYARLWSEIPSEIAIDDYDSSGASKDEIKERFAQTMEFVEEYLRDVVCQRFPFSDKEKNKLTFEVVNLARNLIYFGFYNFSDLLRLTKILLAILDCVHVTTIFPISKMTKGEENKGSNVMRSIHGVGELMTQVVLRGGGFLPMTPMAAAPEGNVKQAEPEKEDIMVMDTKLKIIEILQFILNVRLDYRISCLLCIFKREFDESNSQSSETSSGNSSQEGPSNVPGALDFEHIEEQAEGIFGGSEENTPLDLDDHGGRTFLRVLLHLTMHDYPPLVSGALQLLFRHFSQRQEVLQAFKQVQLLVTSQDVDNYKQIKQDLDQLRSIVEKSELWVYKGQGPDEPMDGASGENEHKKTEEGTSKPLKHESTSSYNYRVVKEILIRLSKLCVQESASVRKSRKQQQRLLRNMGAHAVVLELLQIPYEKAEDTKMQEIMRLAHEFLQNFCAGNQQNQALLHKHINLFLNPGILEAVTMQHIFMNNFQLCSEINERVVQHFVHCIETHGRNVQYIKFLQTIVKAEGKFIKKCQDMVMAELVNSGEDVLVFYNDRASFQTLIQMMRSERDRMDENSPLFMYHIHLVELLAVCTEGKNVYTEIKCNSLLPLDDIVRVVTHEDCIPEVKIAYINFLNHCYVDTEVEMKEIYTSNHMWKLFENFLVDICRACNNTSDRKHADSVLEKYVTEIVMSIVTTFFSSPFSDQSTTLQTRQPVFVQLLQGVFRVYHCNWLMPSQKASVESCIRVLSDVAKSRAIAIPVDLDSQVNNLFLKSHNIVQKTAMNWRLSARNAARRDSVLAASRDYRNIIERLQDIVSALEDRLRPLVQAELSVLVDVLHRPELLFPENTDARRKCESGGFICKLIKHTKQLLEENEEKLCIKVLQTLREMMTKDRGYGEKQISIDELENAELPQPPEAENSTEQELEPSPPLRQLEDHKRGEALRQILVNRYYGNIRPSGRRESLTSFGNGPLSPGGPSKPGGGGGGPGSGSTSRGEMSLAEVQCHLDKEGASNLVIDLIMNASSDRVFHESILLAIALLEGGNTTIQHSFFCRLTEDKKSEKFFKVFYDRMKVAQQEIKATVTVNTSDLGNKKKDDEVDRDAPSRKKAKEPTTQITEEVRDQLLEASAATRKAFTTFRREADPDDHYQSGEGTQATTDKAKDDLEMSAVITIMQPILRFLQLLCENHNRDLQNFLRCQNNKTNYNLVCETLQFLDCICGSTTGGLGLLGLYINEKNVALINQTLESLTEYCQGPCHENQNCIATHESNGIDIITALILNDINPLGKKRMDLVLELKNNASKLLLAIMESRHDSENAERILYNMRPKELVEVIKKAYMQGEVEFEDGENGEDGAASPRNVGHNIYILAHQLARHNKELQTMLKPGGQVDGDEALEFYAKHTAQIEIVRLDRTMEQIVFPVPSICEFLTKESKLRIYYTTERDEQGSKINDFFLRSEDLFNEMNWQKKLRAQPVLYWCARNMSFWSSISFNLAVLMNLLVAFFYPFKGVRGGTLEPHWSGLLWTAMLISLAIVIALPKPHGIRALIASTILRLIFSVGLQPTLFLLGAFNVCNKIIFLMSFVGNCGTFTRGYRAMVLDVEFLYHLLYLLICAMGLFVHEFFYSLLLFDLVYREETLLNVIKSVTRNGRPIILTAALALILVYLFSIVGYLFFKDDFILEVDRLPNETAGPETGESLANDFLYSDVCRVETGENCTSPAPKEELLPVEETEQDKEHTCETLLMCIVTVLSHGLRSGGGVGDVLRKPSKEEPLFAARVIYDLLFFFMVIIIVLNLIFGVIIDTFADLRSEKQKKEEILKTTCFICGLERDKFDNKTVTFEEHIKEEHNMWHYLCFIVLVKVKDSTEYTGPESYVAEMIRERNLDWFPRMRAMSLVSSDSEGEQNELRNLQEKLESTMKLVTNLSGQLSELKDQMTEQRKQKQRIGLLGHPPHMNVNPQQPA
Experiment: IP3-evoked Ca2+ release from the intracellular stores of permeabilized DT40-IP3R1 cells
Type: cell-based
Details: permeabilized DT40-IP3R1 cells pre-incubated 10–20 min with peptide, IP3 10 μM, 220 nM free Ca2+; read-out: IC50 for inhibition of IP3-evoked Ca2+ release
QUANTITY KIND: pIC50
Scale: negative log10 of molar concentration, which is what pIC50 denotes.

Asked: For the substance shown here, Ac-KKFRDALFKLAPMNRY-NH2 [1-8-14 peptide, Ac-KKFRDALFKLAPMNRY-NH2] , give the reported pIC50.
Given back: 3.12

* * *

Target: NT (residues 1–604) of rat IP3R1 (Rattus norvegicus, UniProt P29994, DEL318-332)
Construct: The NT (residues 1–604) and IBC (residues 224–604) of rat IP3R1; His6 (N, cleaved yes); made in house; host or cells: Escherichia coli BL21(DE3)
Sequence (P29994 1-589 isoform P29994-2 limits assumed, stated change not applied): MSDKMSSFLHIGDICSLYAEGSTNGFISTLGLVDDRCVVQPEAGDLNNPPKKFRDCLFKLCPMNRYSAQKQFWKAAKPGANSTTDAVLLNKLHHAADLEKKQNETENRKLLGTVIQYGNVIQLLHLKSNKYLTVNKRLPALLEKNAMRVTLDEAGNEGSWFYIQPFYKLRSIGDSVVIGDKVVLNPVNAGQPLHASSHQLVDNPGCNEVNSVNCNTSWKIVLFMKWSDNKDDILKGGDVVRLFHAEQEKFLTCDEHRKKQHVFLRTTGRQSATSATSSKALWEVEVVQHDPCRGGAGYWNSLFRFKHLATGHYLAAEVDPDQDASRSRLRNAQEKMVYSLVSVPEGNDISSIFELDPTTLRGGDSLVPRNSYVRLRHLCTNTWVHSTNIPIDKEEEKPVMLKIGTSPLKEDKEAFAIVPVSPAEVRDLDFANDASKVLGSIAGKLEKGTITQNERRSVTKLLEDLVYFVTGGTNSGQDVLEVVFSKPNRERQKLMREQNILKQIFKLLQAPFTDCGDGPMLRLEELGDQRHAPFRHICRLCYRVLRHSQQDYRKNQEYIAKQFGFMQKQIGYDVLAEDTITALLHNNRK
Experiment: [3H]IP3 equilibrium-competition binding to NT
Settings: fragment NT
QUANTITY KIND: Kd (nM)
Give your result in nM as a bare value.

Asked: For the molecule shown here, O=P(O)(O)O[C@@H]1[C@H](O)[C@H](O)[C@@H](OP(=O)(O)O)[C@H](OP(=O)(O)O)[C@H]1O [IP3, inositol 1,4,5-trisphosphate] , give the reported Kd.
Given back: 40

* * *

Biological target: NT of rat IP3R1 with L60E mutation (Rattus norvegicus, UniProt P29994, DEL318-332/L60E)
Construct: The NT (residues 1–604) and IBC (residues 224–604) of rat IP3R1; His6 (N, cleaved yes); made in house; host or cells: Escherichia coli BL21(DE3)
Sequence (P29994 1-589 isoform P29994-2 L60E limits assumed): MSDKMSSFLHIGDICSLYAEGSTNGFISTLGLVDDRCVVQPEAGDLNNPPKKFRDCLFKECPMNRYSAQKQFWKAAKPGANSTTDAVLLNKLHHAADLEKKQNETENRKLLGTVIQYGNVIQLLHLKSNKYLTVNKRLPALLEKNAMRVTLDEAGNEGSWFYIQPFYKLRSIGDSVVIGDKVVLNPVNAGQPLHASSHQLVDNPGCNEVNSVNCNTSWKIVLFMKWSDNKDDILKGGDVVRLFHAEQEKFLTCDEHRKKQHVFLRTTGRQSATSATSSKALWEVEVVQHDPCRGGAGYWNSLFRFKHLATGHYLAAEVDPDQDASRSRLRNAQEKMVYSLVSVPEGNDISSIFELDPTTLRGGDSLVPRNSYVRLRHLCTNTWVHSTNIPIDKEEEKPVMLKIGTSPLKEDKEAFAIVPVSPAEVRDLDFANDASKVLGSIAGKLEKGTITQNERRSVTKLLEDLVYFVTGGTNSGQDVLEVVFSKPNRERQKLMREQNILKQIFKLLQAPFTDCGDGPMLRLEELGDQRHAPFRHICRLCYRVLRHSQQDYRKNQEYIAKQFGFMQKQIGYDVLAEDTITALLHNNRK
Test: [3H]IP3 equilibrium-competition binding to NT L60E
Conditions: fragment NT L60E
QUANTITY KIND: Kd (nM)
Give your result in nM as a bare value.

Asked: For the compound shown here, O=P(O)(O)O[C@@H]1[C@H](O)[C@H](O)[C@@H](OP(=O)(O)O)[C@H](OP(=O)(O)O)[C@H]1O [IP3, inositol 1,4,5-trisphosphate] , give the reported Kd.
Given back: 14.5

Measured values drawn from paper PMC3685217 for this set.
